Reported zone of inhibition at 2000 µg/mL values for the following compounds.
# System: Bacillus thuringiensis
# test-details: Antibacterial activity against Bacillus thuringiensis at 2 mg/ml after 24 hrs by agar diffusion assay
# Assay type: functional
# study-conditions: read-out: DIZ
quantity-measured: zone of inhibition at 2000 µg/mL (mm)

>>> numeric_result("Nc1c(C(=O)N2NC(=O)C3C4c5ccccc5C(c5ccccc54)C3C2=O)sc(=S)n1-c1ccccc1 (stereo not given)")
16
>>> numeric_result("Cc1cc(C)c2c(N/N=C(\\C#N)C(=O)N3NC(=O)C4C5c6ccccc6C(c6ccccc65)C4C3=O)n[nH]c2n1 (stereo not given)")
20
>>> numeric_result("N=c1oc2ccccc2cc1C(=O)N1NC(=O)C2C3c4ccccc4C(c4ccccc43)C2C1=O (stereo not given)")
20
>>> numeric_result("CC1(C)S[C@@H]2[C@H](NC(=O)[C@H](N)c3ccccc3)C(=O)N2[C@H]1C(=O)O")
19
>>> numeric_result("CS/C(Nc1ccccc1)=C(/C#N)C(=O)N1NC(=O)C2C3c4ccccc4C(c4ccccc43)C2C1=O (stereo not given)")
26
